Target: T1, human CD3 E&D complex protein (Sino Biological Inc., CT026H0323H) (human, UniProt P07766 23-126; P04234 22-105)
T1 construct: bought heterodimer; also called human CD3 protein (CT026H0323H)
T1 sequence (P07766 23-126, chain 1 of 2): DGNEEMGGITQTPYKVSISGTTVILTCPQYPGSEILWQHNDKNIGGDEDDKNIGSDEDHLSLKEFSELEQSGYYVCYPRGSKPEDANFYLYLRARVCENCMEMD
T1 sequence (P04234 22-105, chain 2 of 2): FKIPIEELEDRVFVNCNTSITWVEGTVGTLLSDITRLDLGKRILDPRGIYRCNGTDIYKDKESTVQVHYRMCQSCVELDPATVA
Test: BLI, antibody on sensor
observable: Kd (nM)
Supply the numeric figure in nM, leaving out any unit text.

Would you please look over these solved cases?
1. hzsp34.84 (antibody, human IgG1, lambda, L234A L235A, V domains shown, CDR mutant of hzsp34.24; IgG1 L234A L235A, lambda) VH: EVQLVESGGGLVQPGGSLKLSCAASGFTFNTYAMNWVRQASGKGLEWVGRIRSKYGNYATYYADSVKDRFTISRDDSKSTLYLQMNSLKTEDTAVYYCARHGNFGQSYVSWFAYWGQGTTVTVSS VL: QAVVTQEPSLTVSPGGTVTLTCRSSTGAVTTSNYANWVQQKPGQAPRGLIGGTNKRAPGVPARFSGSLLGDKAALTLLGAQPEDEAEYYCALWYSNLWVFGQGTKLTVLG = 0.812
2. hzsp34.114 (antibody, human IgG1, lambda, L234A L235A, V domains shown, CDR mutant of hzsp34.24; IgG1 L234A L235A, lambda) VH: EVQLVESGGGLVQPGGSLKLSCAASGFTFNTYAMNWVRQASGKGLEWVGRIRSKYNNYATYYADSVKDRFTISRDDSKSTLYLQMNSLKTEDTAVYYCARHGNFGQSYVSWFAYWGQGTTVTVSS VL: QAVVTQEPSLTVSPGGTVTLTCRSSTGAVTTSNYANWVQQKPGQAPRGLIGGTNKRAPGVPARFSGSLLGDKAALTLLGAQPEDEAEYYCALWYRGLWVFGQGTKLTVLG = 1.08

Continue with the next binder.
Consider the binder hzsp34.99 (antibody, human IgG1, lambda, L234A L235A, V domains shown, CDR mutant of hzsp34.24; IgG1 L234A L235A, lambda) VH: EVQLVESGGGLVQPGGSLKLSCAASGFTFNTYAMNWVRQASGKGLEWVGRIRSKYNNYATYYADSVKDRFTISRDDSKSTLYLQMNSLKTEDTAVYYCARHGNAYQSYVSWFAYWGQGTTVTVSS VL: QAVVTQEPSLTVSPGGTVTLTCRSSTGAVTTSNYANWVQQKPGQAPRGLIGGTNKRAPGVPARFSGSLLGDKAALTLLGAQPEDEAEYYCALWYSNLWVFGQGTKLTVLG . State its measured Kd.
9.63
